IC50 by entry:
System: HT-29
Measurement Protocol: Antiproliferative activity against human HT-29 cells after 72 hrs by MTT assay
Format: functional, cell-based
Condition: HT-29, 72 h
Recorded Endpoint: IC50 (nM)

{"columns": ["Smiles", "Tested Target", "Recorded Endpoint", "Qualifying Sign", "Quantitative Result"],
 "data": [
  ["C[C@H]1CCC/C=C/[C@@H]2C[C@H](OC(=O)CCC(=O)OCCOc3no[n+]([O-])c3S(=O)(=O)c3ccccc3)C[C@H]2[C@H](OC(=O)CCC(=O)OCCOc2no[n+]([O-])c2S(=O)(=O)c2ccccc2)/C=C/C(=O)O1", "HT-29", "IC50", "=", 220],
  ["O=C(O)CCC(=O)OCCOc1no[n+]([O-])c1S(=O)(=O)c1ccccc1", "HT-29", "IC50", ">", 10000],
  ["C[C@H]1CCC/C=C/[C@@H]2C[C@H](OC(=O)CCCC(=O)OCCCOc3no[n+]([O-])c3S(=O)(=O)c3ccccc3)C[C@H]2[C@H](OC(=O)CCCC(=O)OCCCOc2no[n+]([O-])c2S(=O)(=O)c2ccccc2)/C=C/C(=O)O1", "HT-29", "IC50", "=", 620]
]}
